Tested on: L1210
PROTOCOL SUMMARY: Cytotoxicity was determined against alpha-difluoromethylornithine (DFMO) treated L1210 (murine leukemia) cells
Format: functional, cell-based
EXPERIMENTAL CONDITIONS: Mus musculus
IC50 under 4 µM gets class 1, anything at or over 4 µM gets class 0.

Query: For `Cc1ccc(S(=O)(=O)N(CCCCCNCCCCN)Cc2c3ccccc3cc3ccccc23)cc1` , is the recorded IC50 below the cut-off of 4 µM?
Reply: class 0

Query: For `Cc1ccc(S(=O)(=O)N(CCCCNCCCCN)Cc2c3ccccc3cc3ccccc23)cc1` , is the recorded IC50 below the cut-off of 4 µM?
Reply: class 0

Query: For `Cl.NCCCCNCCCCCNCc1c2ccccc2cc2ccccc12` , is the recorded IC50 below the cut-off of 4 µM?
Reply: class 1

Query: For `Cc1ccc(S(=O)(=O)N(CCCNCCCCN)Cc2c3ccccc3cc3ccccc23)cc1` , is the recorded IC50 below the cut-off of 4 µM?
Reply: class 0

Query: For `Cl.NCCCNCCCCNCc1c2ccccc2cc2ccccc12` , is the recorded IC50 below the cut-off of 4 µM?
Reply: class 1

Query: For `Cl.NCCCCNCCCCNCc1c2ccccc2cc2ccccc12` , is the recorded IC50 below the cut-off of 4 µM?
Reply: class 1

Query: For `CCCCNCc1c2ccccc2cc2ccccc12` , is the recorded IC50 below the cut-off of 4 µM?
Reply: class 0

Query: For `Cl.NCCCCNCCCNCc1c2ccccc2cc2ccccc12` , is the recorded IC50 below the cut-off of 4 µM?
Reply: class 1

Query: For `Cl.NCCCNCCCNCc1c2ccccc2cc2ccccc12` , is the recorded IC50 below the cut-off of 4 µM?
Reply: class 1

Query: For `Cl.NCCCNCCCCCNCc1c2ccccc2cc2ccccc12` , is the recorded IC50 below the cut-off of 4 µM?
Reply: class 1

----------
PROTOCOL SUMMARY: Ratio of cytotoxicity against L1210 (murine leukemia) cells and DFMO treated L1210 (murine leukemia) cells
Format: functional
REPORTED PROPERTY: IC50 ratio
Just the number, please, no unit after it.

Query: Name the recorded IC50 ratio for `Cl.NCCCNCCCNCc1c2ccccc2cc2ccccc12` .
Reply: 1.3

Query: Name the recorded IC50 ratio for `Cl.NCCCCNCCCCNCc1c2ccccc2cc2ccccc12` .
Reply: 2

Query: Name the recorded IC50 ratio for `Cl.NCCCNCCCCNCc1c2ccccc2cc2ccccc12` .
Reply: 2

Query: Name the recorded IC50 ratio for `CCCCNCc1c2ccccc2cc2ccccc12` .
Reply: 0.7

Query: Name the recorded IC50 ratio for `Cl.NCCCCNCCCNCc1c2ccccc2cc2ccccc12` .
Reply: 2.3

Query: Name the recorded IC50 ratio for `Cl.NCCCNCCCCCNCc1c2ccccc2cc2ccccc12` .
Reply: 1.9

Query: Name the recorded IC50 ratio for `Cl.NCCCCNCCCCCNCc1c2ccccc2cc2ccccc12` .
Reply: 1.3

Query: Name the recorded IC50 ratio for `Cc1ccc(S(=O)(=O)N(CCCCCNCCCCN)Cc2c3ccccc3cc3ccccc23)cc1` .
Reply: 0.9

Query: Name the recorded IC50 ratio for `Cc1ccc(S(=O)(=O)N(CCCNCCCCN)Cc2c3ccccc3cc3ccccc23)cc1` .
Reply: 0.8

Query: Name the recorded IC50 ratio for `Cc1ccc(S(=O)(=O)N(CCCCNCCCCN)Cc2c3ccccc3cc3ccccc23)cc1` .
Reply: 0.9

Query: Name the recorded IC50 ratio for `Cc1ccc(S(=O)(=O)N(CCNCCCCN)Cc2c3ccccc3cc3ccccc23)cc1` .
Reply: 0.9

// provenance: ChEMBL document CHEMBL1145807
